B1: TPR t1 (parent)
chain: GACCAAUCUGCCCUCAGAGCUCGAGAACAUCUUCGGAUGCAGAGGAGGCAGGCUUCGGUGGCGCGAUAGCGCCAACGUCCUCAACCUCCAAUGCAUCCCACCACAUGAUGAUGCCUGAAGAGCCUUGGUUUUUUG

- Variants of: B1
- test_details: polymerase ribozyme fitness, log enrichment relative to wild type (log ratio); higher = more active; in vitro selection for triplet polymerase activity
// label = MET if polymerase ribozyme fitness (log ratio) is not less than -3, otherwise NOT MET

Quick check, polymerase ribozyme fitness (log ratio) >= -3? C53U C56U C89A G120A
MET

Quick check, polymerase ribozyme fitness (log ratio) >= -3? G117A A119C G120C G122A U133G
NOT MET

Quick check, polymerase ribozyme fitness (log ratio) >= -3? G120C U130A
MET

Quick check, polymerase ribozyme fitness (log ratio) >= -3? C34A G69C A111G
NOT MET

Quick check, polymerase ribozyme fitness (log ratio) >= -3? C20A C49A G63U
NOT MET

Quick check, polymerase ribozyme fitness (log ratio) >= -3? C11A A46C G63A U131G
MET

Quick check, polymerase ribozyme fitness (log ratio) >= -3? C15U U55G G69A
NOT MET

Quick check, polymerase ribozyme fitness (log ratio) >= -3? C31U C49G G63U A75C
NOT MET

Quick check, polymerase ribozyme fitness (log ratio) >= -3? C12A C62G U133G
MET

Quick check, polymerase ribozyme fitness (log ratio) >= -3? C70U C101U G117C
NOT MET

These entries and their values trace back to the RNAGym collection of RNA variant scans (doi:10.1073/pnas.2313332121).
